Listed compounds paired with reported LD50 at 720 h
# METHOD_DESCRIPTION: Acute toxicity (LD50, Behrens-Karber method)
# Format: in vivo, ICR mice
# TEST_PARAMETERS: mouse, in vivo, ip, mortality during 30 days
READOUT_TYPE: LD50 at 720 h (mg/kg)

>  <COMPOUND>
COCCN(C[C@H]1O[C@H](OC2CCCCC2)[C@H](O)[C@@H](O)[C@@H]1O)C(=O)N(CCCl)N=O

>  <READOUT_TYPE>
LD50 at 720 h

>  <OBSERVED_MEASUREMENT>
510

$$$$
>  <COMPOUND>
CCCCOC1OC(CO)C(O)C(N(C(=O)N(CCCl)N=O)C(C)CC)C1O (stereo not drawn)

>  <READOUT_TYPE>
LD50 at 720 h

>  <OBSERVED_MEASUREMENT>
580

$$$$
>  <COMPOUND>
CCOCCCN(C[C@H]1O[C@H](OC(C)CC)[C@H](O)[C@@H](O)[C@@H]1O)C(=O)N(CCCl)N=O (stereo partly drawn)

>  <READOUT_TYPE>
LD50 at 720 h

>  <OBSERVED_MEASUREMENT>
560

$$$$
>  <COMPOUND>
CC(C)(C)CN(C[C@H]1O[C@H](OCC2CCCO2)[C@H](O)[C@@H](O)[C@@H]1O)C(=O)N(CCCl)N=O (stereo partly drawn)

>  <READOUT_TYPE>
LD50 at 720 h

>  <OBSERVED_MEASUREMENT>
550

$$$$
>  <COMPOUND>
CC(C)CN(C[C@H]1O[C@H](OC2CCCCC2)[C@H](O)[C@@H](O)[C@@H]1O)C(=O)N(CCCl)N=O

>  <READOUT_TYPE>
LD50 at 720 h

>  <OBSERVED_MEASUREMENT>
580

$$$$
>  <COMPOUND>
C=CCN(C[C@H]1O[C@H](OC2CCCCC2)[C@H](O)[C@@H](O)[C@@H]1O)C(=O)N(CCCl)N=O

>  <READOUT_TYPE>
LD50 at 720 h

>  <OBSERVED_MEASUREMENT>
430

$$$$
>  <COMPOUND>
CC(C)CO[C@H]1O[C@H](CN(CC(C)C)C(=O)N(CCCl)N=O)[C@@H](O)[C@H](O)[C@H]1O

>  <READOUT_TYPE>
LD50 at 720 h

>  <OBSERVED_MEASUREMENT>
510

$$$$
>  <COMPOUND>
CC(C)COC1OC(CO)C(N(CC2CC2)C(=O)N(CCCl)N=O)C(O)C1O (stereo not drawn)

>  <READOUT_TYPE>
LD50 at 720 h

>  <OBSERVED_MEASUREMENT>
400

$$$$
>  <COMPOUND>
CCOCCCN(C(=O)N(CCCl)N=O)C1C(OC2CCCCC2)OC(CO)C(O)C1O (stereo not drawn)

>  <READOUT_TYPE>
LD50 at 720 h

>  <OBSERVED_MEASUREMENT>
655

$$$$
>  <COMPOUND>
COCC(C)N(C(=O)N(CCCl)N=O)[C@H]1[C@@H](OCC(C)C)O[C@H](CO)[C@H](O)[C@@H]1O (stereo partly drawn)

>  <READOUT_TYPE>
LD50 at 720 h

>  <OBSERVED_MEASUREMENT>
745

$$$$
>  <COMPOUND>
O=NN(CCCl)C(=O)N(CC1CCCO1)C[C@H]1O[C@H](OC2CCCCC2)[C@H](O)[C@@H](O)[C@@H]1O (stereo partly drawn)

>  <READOUT_TYPE>
LD50 at 720 h

>  <OBSERVED_MEASUREMENT>
450

$$$$
>  <COMPOUND>
CC(C)CO[C@@H]1O[C@H](CO)[C@@H](O)[C@H](O)[C@H]1N(C(=O)N(CCCl)N=O)C(C)(C)C

>  <READOUT_TYPE>
LD50 at 720 h

>  <OBSERVED_MEASUREMENT>
620

$$$$
>  <COMPOUND>
COCC(C)N(C[C@H]1O[C@H](OC2CCCCC2)[C@@H](O)[C@@H](O)[C@H]1O)C(=O)N(CCCl)N=O (stereo partly drawn)

>  <READOUT_TYPE>
LD50 at 720 h

>  <OBSERVED_MEASUREMENT>
580

$$$$
>  <COMPOUND>
O=NN(CCCl)C(=O)N[C@@H]1O[C@H](CO)[C@@H](O)[C@H](O)[C@H]1O [GANU, reference compound]

>  <READOUT_TYPE>
LD50 at 720 h

>  <OBSERVED_MEASUREMENT>
35

$$$$
>  <COMPOUND>
CC(C)CO[C@H]1O[C@H](CN(CC(C)(C)C)C(=O)N(CCCl)N=O)[C@@H](O)[C@H](O)[C@H]1O

>  <READOUT_TYPE>
LD50 at 720 h

>  <OBSERVED_MEASUREMENT>
520

$$$$

---

# METHOD_DESCRIPTION: Acute toxicity (LD50, Behrens-Karber method)
# Assay type: in vivo, ICR mice
# TEST_PARAMETERS: mouse, in vivo, ip, mortality during 30 days
Quick reference for LD50 at 720 h among some compounds

>  <COMPOUND>
COCCCO[C@H]1O[C@H](CN(CC(C)(C)C)C(=O)N(CCCl)N=O)[C@@H](O)[C@H](O)[C@H]1O

>  <LD50 at 720 h / mg/kg>
520

$$$$
>  <COMPOUND>
CCCCO[C@H]1O[C@H](CN(CC(C)C)C(=O)N(CCCl)N=O)[C@@H](O)[C@H](O)[C@H]1O

>  <LD50 at 720 h / mg/kg>
440

$$$$
>  <COMPOUND>
CCCCOC1OC(CO)C(O)C(O)C1N(CC1CCCO1)C(=O)N(CCCl)N=O (stereo not shown)

>  <LD50 at 720 h / mg/kg>
595

$$$$
>  <COMPOUND>
O=NN(CCCl)C(=O)N(CCC1CCCC1)C1C(OC2CCCCC2)OC(CO)C(O)C1O (stereo not shown)

>  <LD50 at 720 h / mg/kg>
650

$$$$

---

# Tested on: Leukemia L1210
# METHOD_DESCRIPTION: Activity against Leukemia L1210, intraperitoneal, increase in life span of mice
# Type: in vivo, female mice (BDF1 family)
# TEST_PARAMETERS: Mus musculus, L1210, ip, ip once a day for 5 successive days; daily dosage giving maximum increase of life span; read-out: O.D. (optimum dosage)
# Method: Tests were conducted in accordance with the method for measuring antitumor activity of National Cancer Center Tokyo (A, Hoshi et al, Farumashia 9 464 (1973)). […] An increase percentage of life span (ILS%) was calculated from said average survival days compared with those of the control group. […]

>  <COMPOUND>
CC(C)(C)N(C[C@H]1O[C@H](OCCN2CCOCC2)[C@H](O)[C@@H](O)[C@@H]1O)C(=O)N(CCCl)N=O

>  <READOUT_UNITS>
mg/kg

>  <ED (maximum ILS)>
160

$$$$
>  <COMPOUND>
Cc1ccc(CN(C[C@H]2O[C@H](OC3CCCCC3)[C@H](O)[C@@H](O)[C@@H]2O)C(=O)N(CCCl)N=O)cc1

>  <READOUT_UNITS>
mg/kg

>  <ED (maximum ILS)>
170

$$$$
>  <COMPOUND>
CC(C)N(C(=O)N(CCCl)N=O)[C@@H]1CO[C@H](OC2CCCCC2)[C@H](O)[C@H]1O

>  <READOUT_UNITS>
mg/kg

>  <ED (maximum ILS)>
160

$$$$
>  <COMPOUND>
CCCCO[C@H]1O[C@H](CN(CC(C)C)C(=O)N(CCCl)N=O)[C@@H](O)[C@H](O)[C@H]1O

>  <READOUT_UNITS>
mg/kg

>  <ED (maximum ILS)>
150

$$$$
>  <COMPOUND>
CO[C@H]1O[C@H](CNC(=O)N(CCCl)N=O)[C@@H](O)[C@H](O)[C@H]1O [Compound 6MCαG, reference compound]

>  <READOUT_UNITS>
mg/kg

>  <ED (maximum ILS)>
13.5

$$$$
>  <COMPOUND>
COCCN(C[C@H]1O[C@H](OC2CCCCC2)[C@H](O)[C@@H](O)[C@@H]1O)C(=O)N(CCCl)N=O

>  <READOUT_UNITS>
mg/kg

>  <ED (maximum ILS)>
170

$$$$
>  <COMPOUND>
O=NN(CCCl)C(=O)N(CC1CCCO1)[C@H]1[C@H](OC2CCCCC2)OC[C@H](O)[C@@H]1O (stereo partly shown)

>  <READOUT_UNITS>
mg/kg

>  <ED (maximum ILS)>
150

$$$$
